experiment: Visually estimated solubility of Form 1 in an array of solvents; type: physicochemical; conditions: organic solvent or mixture, thermodynamic from solid; 1,4-Dioxane; 20° C.; read-out: Solubility at RT
measure: solubility

>>> observedvalue("[2H]C1([2H])C(=O)NC(=O)[C@@]([2H])(N2Cc3c(N)cccc3C2=O)C1([2H])[2H] (single isomer, unassigned) [Form 1]")
"< 1 mg/mL"

----------
experiment: Visually estimated solubility of Form 1 in an array of solvents; assay type: physicochemical; settings: organic solvent or mixture, thermodynamic from solid; Methanol: 5% vol. Water; 20° C.; read-out: Solubility at RT
measure: solubility

>>> observedvalue("[2H]C1([2H])C(=O)NC(=O)[C@@]([2H])(N2Cc3c(N)cccc3C2=O)C1([2H])[2H] (single isomer, unassigned) [Form 1]")
"1000 to 10000 µg/mL"

----------
experiment: Visually estimated solubility of Form 1 in an array of solvents; assay type: physicochemical; details: toluene, 40 °C, organic solvent or mixture, thermodynamic from solid; read-out: Solubility at 40° C.
measure: solubility

>>> observedvalue("[2H]C1([2H])C(=O)NC(=O)[C@@]([2H])(N2Cc3c(N)cccc3C2=O)C1([2H])[2H] (single isomer, unassigned) [Form 1]")
"< 1000 µg/mL"

----------
assay: Visually estimated solubility of Form 1 in an array of solvents; format: physicochemical; conditions: organic solvent or mixture, thermodynamic from solid; Heptane; 20° C.; read-out: Solubility at RT
measure: solubility

>>> observedvalue("[2H]C1([2H])C(=O)NC(=O)[C@@]([2H])(N2Cc3c(N)cccc3C2=O)C1([2H])[2H] (single isomer, unassigned) [Form 1]")
"< 1000 µg/mL"

----------
assay: Visually estimated solubility of Form 1 in an array of solvents; assay type: physicochemical; settings: heptane, 40 °C, organic solvent or mixture, thermodynamic from solid; read-out: Solubility at 40° C.
measure: solubility

>>> observedvalue("[2H]C1([2H])C(=O)NC(=O)[C@@]([2H])(N2Cc3c(N)cccc3C2=O)C1([2H])[2H] (single isomer, unassigned) [Form 1]")
"< 1000 µg/mL"

----------
Experiment: Visually estimated solubility of Form 1 in an array of solvents
Type: physicochemical
Conditions: organic solvent or mixture, thermodynamic from solid; Methanol; 20° C.; read-out: Solubility at RT
Experimental: Solubility of Form 1 was visually estimated in an array of different solvents. […] Where applicable, the undissolved solids were analyzed by PXRD to verify crystal form. […] Solubility of Form 1 was visually estimated in an array of diverse solvents. […] Where applicable, the undissolved solids were analyzed by PXRD to verify crystal form. […]
measure: solubility

>>> observedvalue("[2H]C1([2H])C(=O)NC(=O)[C@@]([2H])(N2Cc3c(N)cccc3C2=O)C1([2H])[2H] (single isomer, unassigned) [Form 1]")
"1000 to 6000 µg/mL"

----------
experiment: Visually estimated solubility of Form 1 in an array of solvents; type: physicochemical; settings: 1,4-dioxane, 40 °C, organic solvent or mixture, thermodynamic from solid; read-out: Solubility at 40° C.
measure: solubility

>>> observedvalue("[2H]C1([2H])C(=O)NC(=O)[C@@]([2H])(N2Cc3c(N)cccc3C2=O)C1([2H])[2H] (single isomer, unassigned) [Form 1]")
"> 6000 µg/mL"

----------
assay: Visually estimated solubility of Form 1 in an array of solvents; assay type: physicochemical; conditions: organic solvent or mixture, thermodynamic from solid; Methanol: 10% vol. Water; 20° C.; read-out: Solubility at RT
measure: solubility

>>> observedvalue("[2H]C1([2H])C(=O)NC(=O)[C@@]([2H])(N2Cc3c(N)cccc3C2=O)C1([2H])[2H] (single isomer, unassigned) [Form 1]")
"1000 to 10000 µg/mL"

----------
assay: Visually estimated solubility of Form 1 in an array of solvents; type: physicochemical; settings: dichloromethane, 40 °C, organic solvent or mixture, thermodynamic from solid; read-out: Solubility at 40° C.
measure: solubility

>>> observedvalue("[2H]C1([2H])C(=O)NC(=O)[C@@]([2H])(N2Cc3c(N)cccc3C2=O)C1([2H])[2H] (single isomer, unassigned) [Form 1]")
"< 1000 µg/mL"

----------
assay: Visually estimated solubility of Form 1 in an array of solvents; format: physicochemical; settings: thermodynamic from solid; Water; 20° C.; read-out: Solubility at RT
measure: solubility

>>> observedvalue("[2H]C1([2H])C(=O)NC(=O)[C@@]([2H])(N2Cc3c(N)cccc3C2=O)C1([2H])[2H] (single isomer, unassigned) [Form 1]")
"1000 to 6000 µg/mL"

----------
experiment: Visually estimated solubility of Form 1 in an array of solvents; type: physicochemical; details: organic solvent or mixture, thermodynamic from solid; Tetrahydrofuran; 20° C.; read-out: Solubility at RT
measure: solubility

>>> observedvalue("[2H]C1([2H])C(=O)NC(=O)[C@@]([2H])(N2Cc3c(N)cccc3C2=O)C1([2H])[2H] (single isomer, unassigned) [Form 1]")
"1000 to 6000 µg/mL"
